# test details: Aqueous solubility of solid state forms (with post-solubility pH and XRPD of excess solid)
# Assay type: physicochemical
# condition details: water, thermodynamic from solid
attribute measured: solubility

# molecule, result
rows = [
    ("Cc1cc(N2CCc3cc(F)ccc3C2)cc(C)c1NC(=O)CC(C)(C)C [Compound A Form 2]", "< 100 µg/mL"),
]

====

# test details: Variable temperature XRPD (VT-XRPD): polymorphic form at each temperature
# Type: physicochemical
# condition details: 25° C., final scan after cooling from the top temperature
# Description: VT-XRPD analysis was carried out on a Philips X'Pert Pro Multipurpose diffractometer equipped with a temperature chamber. The samples were loaded onto the VT stage and scanned between 4 and 35.99 °2θ using Cu K radiation (α1 λ=1.54060 Å; α2=1.54443 Å; β=1.39225 Å; α1:α2 ratio=0.5) running in Bragg-Brentano geometry (step size 0.008 °2θ) using 40 kV/40 mA generator settings. Measurements were performed at various temperature profiles. […]
attribute measured: VT-XRPD Polymorphic Form

# compound, attribute measured, result
records = [
    ("Cc1cc(N2CCc3cc(F)ccc3C2)cc(C)c1NC(=O)CC(C)(C)C [Compound A Form 9]", "VT-XRPD Polymorphic Form", "Amorphous"),
    ("Cc1cc(N2CCc3cc(F)ccc3C2)cc(C)c1NC(=O)CC(C)(C)C [Compound A Form 11]", "VT-XRPD Polymorphic Form", "Amorphous"),
    ("Cc1cc(N2CCc3cc(F)ccc3C2)cc(C)c1NC(=O)CC(C)(C)C [Compound A Form 2]", "VT-XRPD Polymorphic Form", "Amorphous"),
]
